- system: MATE2K (Homo sapiens)
- assay.remarks: Uptake ratio in MATE2K-overexpressing HEK293 cells vs empty vector (2.5 μM, 1 min, HPLC-MS/MS)
- Type: cell-based
- test.parameters: mean ratio of uptake in MATE2K-overexpressing HEK293 cells vs empty vector; 2.5 μM, 1 min
For each entry below, report its MATE2 (uptake ratio) value.

Exercise: Give the reported value of MATE2 (uptake ratio) for this record: Cc1ccc(C(=O)Oc2ccc(C(O)CNC(C)(C)C)cc2OC(=O)c2ccc(C)cc2)cc1 (stereo not shown)
Key: 0.57

// for each compound below, give its MATE2 (uptake ratio)
1. COc1cc(CNC(=O)CCCC/C=C/C(C)C)ccc1O
2. [H]/N=C(\N/C(=N/[H])NCCCCCCNC(=N)NC(=N)Nc1ccc(Cl)cc1)Nc1ccc(Cl)cc1

Key:
1: 0.99; 2: 0.99

Exercise: Give the reported value of MATE2 (uptake ratio) for this record: CCC(C)C(=O)OC(CC(=O)[O-])C[N+](C)(C)C (stereo not shown)
Key: 1.24

----------
- system: MATE2K (Homo sapiens)
- assay.remarks: Uptake ratio in MATE2K-overexpressing HEK293 cells vs empty vector (2.5 μM, 1 min, HPLC-MS/MS)
- Type: cell-based
- test.parameters: uptake ratio MATE2K-overexpressing vs empty-vector HEK293 cells, 2.5 μM, 1 min; mean
For each entry below, report its MATE2 value.
Give bare numbers.

Exercise: // fetch MATE2 for CC(C)(C)NCC(O)c1ccc(O)c(CO)c1 [Salbutamol (S), Salbutamol] ; system: MATE2K (Homo sapiens)
Key: 5.09

// for each compound below, give its MATE2
1. CC(C)(C)NCC(O)c1ccc(O)c(CO)c1 [Salbutamol (R), Salbutamol]
2. CN[C@H]1CC[C@@H](c2ccc(Cl)c(Cl)c2)c2ccccc21 [Sertraline]
3. CCCCC[C@H](O)/C=C/[C@@H]1[C@@H](C/C=C\CCCC(=O)O)[C@@H](O)C[C@H]1O [Prostaglandin F2alpha]
4. C[N+](C)(C)C[C@@H](CC(=O)[O-])OC(=O)CCC(=O)O [Succinylcarnitine]
5. CCCN1CCCC[C@H]1C(=O)Nc1c(C)cccc1C [Ropivacaine]
6. COc1cc(Cc2cnc(N)nc2N)cc(OC)c1OC [trimethoprim]

Key:
1. 3.74
2. 1.1
3. 0.92
4. 1.38
5. 1.49
6. 1.23

----------
- system: UniProtKB Q96FL8
- assay.remarks: Uptake ratio in MATE1-overexpressing HEK293 cells vs empty vector (2.5 μM, 1 min, HPLC-MS/MS)
- Format: cell-based
- test.parameters: fold uptake over empty vector, 2.5 μM, 1 min
For each entry below, report its MATE1 ratio value.

Exercise: Give the reported value of MATE1 ratio for this record: "Oc1ncnc2[nH]ncc12"
Key: 1.08

Exercise: Give the reported value of MATE1 ratio for this record: "Cc1cnc(Nc2ccc(OCCN3CCCC3)cc2)nc1Nc1cccc(S(=O)(=O)NC(C)(C)C)c1"
Key: 1.16

Exercise: Give the reported value of MATE1 ratio for this record: CNCC(O)c1ccccc1 (centres unmarked)
Key: 1.41

Exercise: Give the reported value of MATE1 ratio for this record: "CCCOC(C(=O)OC1CCN(C)CC1)(c1ccccc1)c1ccccc1"
Key: 1.20

---
Exercise: Give the reported value of MATE1 ratio for this record: "CCCCCCCCc1ccc(CCC(N)(CO)CO)cc1"
Key: 1.12

----------
- system: MATE1 (Homo sapiens, UniProt Q96FL8)
- Sequence (Q96FL8 whole entry): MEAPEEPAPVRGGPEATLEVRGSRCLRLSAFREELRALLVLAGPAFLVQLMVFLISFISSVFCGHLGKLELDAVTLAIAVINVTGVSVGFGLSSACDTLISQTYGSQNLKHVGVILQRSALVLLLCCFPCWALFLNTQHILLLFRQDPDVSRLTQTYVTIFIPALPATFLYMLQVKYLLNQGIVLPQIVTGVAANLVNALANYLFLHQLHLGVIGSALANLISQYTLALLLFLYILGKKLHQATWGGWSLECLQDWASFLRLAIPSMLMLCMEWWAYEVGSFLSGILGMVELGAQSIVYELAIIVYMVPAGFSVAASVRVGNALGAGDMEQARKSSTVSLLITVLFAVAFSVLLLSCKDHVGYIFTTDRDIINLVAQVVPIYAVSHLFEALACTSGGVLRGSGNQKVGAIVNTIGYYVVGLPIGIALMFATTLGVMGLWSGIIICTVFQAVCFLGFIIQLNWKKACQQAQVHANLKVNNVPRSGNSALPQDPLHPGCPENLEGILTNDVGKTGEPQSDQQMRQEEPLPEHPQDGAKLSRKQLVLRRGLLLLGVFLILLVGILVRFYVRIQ
- assay.remarks: Uptake ratio in MATE1-overexpressing HEK293 cells vs empty vector (2.5 μM, 1 min, HPLC-MS/MS)
- Type: cell-based
- test.parameters: mean ratio of uptake in MATE1-overexpressing HEK293 cells vs empty vector; 2.5 μM, 1 min
For each entry below, report its MATE1 (uptake ratio) value.
Numbers only.

Please review the following examples before continuing.
Exercise: Give the reported value of MATE1 (uptake ratio) for this record: CCC(C)C(=O)OC(CC(=O)[O-])C[N+](C)(C)C (centres unmarked) [2-Methylbutyrylcarnitine]
Key: 0.61

Exercise: Give the reported value of MATE1 (uptake ratio) for this record: NCCc1ccccc1 [2-Phenylethylamine]
Key: 1.39

Exercise: Give the reported value of MATE1 (uptake ratio) for this record: CC(C)NCC(O)COc1ccc(CCOCC2CC2)cc1 (centres unmarked) [Betaxolol]
Key: 1.37

Exercise: Give the reported value of MATE1 (uptake ratio) for this record: CNCC[C@@H](Oc1ccccc1C)c1ccccc1 [Atomoxetine (S), Atomoxetine]
Key: 1.16

Exercise: Give the reported value of MATE1 (uptake ratio) for this record: Cc1cc(O)cc(C)c1OCC(C)N (centres unmarked) [4-Hydroxymexiletine]
Key: 1.67

Exercise: Give the reported value of MATE1 (uptake ratio) for this record: Oc1ncnc2[nH]ncc12 [Allopurinol]
Key: 1.08

Exercise: Give the reported value of MATE1 (uptake ratio) for this record: NCCC(=O)N[C@@H](Cc1cnc[nH]1)C(=O)O [Carnosine]
Key: 0.18

Exercise: Give the reported value of MATE1 (uptake ratio) for this record: COc1ccc(-n2nc(C(N)=O)c3c2C(=O)N(c2ccc(N4CCCCC4=O)cc2)CC3)cc1 [Apixaban]
Key: 1.24

// for each compound below, give its MATE1 (uptake ratio)
1. CCN1CCCC1CNC(=O)c1cc(S(=O)(=O)CC)c(N)cc1OC [Amisulpride (S), Amisulpride]
2. CCN1CCCC1CNC(=O)c1cc(S(=O)(=O)CC)c(N)cc1OC [Amisulpride (R), Amisulpride]
3. NCC(CC(=O)O)c1ccc(Cl)cc1 (centres unmarked) [Baclofen]
4. CCS(=O)(=O)N1CC(CC#N)(n2cc(-c3ncnc4[nH]ccc34)cn2)C1 [Baricitinib]

Key:
13.7
8.46
1.45
0.82

// for each compound below, give its MATE1 (uptake ratio)
1. CCN1CCCC1CNC(=O)c1cc(S(=O)(=O)CC)c(N)cc1OC (centres unmarked) [Amisulpride]
2. CCN1CCN(Cc2ccc(Nc3ncc(F)c(-c4cc(F)c5nc(C)n(C(C)C)c5c4)n3)nc2)CC1 [Abemaciclib]
3. C[N+](C)(C)CCO [Choline]

Key:
1: 11.04; 2: 1.06; 3: 1.13

// for each compound below, give its MATE1 (uptake ratio)
1. Nc1ccc2[nH]ncc2c1 [5-Aminoindazole]
2. N=C(N)N1Cc2ccccc2C(O)C1 (centres unmarked) [4-Hydroxydebrisoquine]
3. CC(=O)c1cc2cccc(OCC(O)CNC(C)C)c2o1 (centres unmarked) [Befunolol]
4. COc1cc(CNC(=O)CCCC/C=C/C(C)C)ccc1O [Capsaicin]
5. CC(C[N+](C)(C)C)OC(N)=O (centres unmarked) [Bethanechol]

Key:
1: 0.99; 2: 9.59; 3: 1.39; 4: 1.18; 5: 0.23

----------
- system: MATE1 (Homo sapiens, UniProt Q96FL8)
- assay.remarks: Uptake ratio in MATE1-overexpressing HEK293 cells vs empty vector (2.5 μM, 1 min, HPLC-MS/MS)
- Format: cell-based
quantity.measured: MATE1 (uptake ratio)
Numbers only.

Exercise: // fetch MATE1 (uptake ratio) for "Cn1c(=O)[nH]c2nc[nH]c2c1=O" ; system: MATE1 (Homo sapiens, UniProt Q96FL8)
Key: 1.08

// for each compound below, give its MATE1 (uptake ratio)
1. C[C@]12CCC(=O)C=C1CC[C@@H]1[C@@H]2CC[C@@]2(C)[C@H]1CC[C@]2(C)O
2. COc1ccc(CCN)cc1

Key:
[1.17, 1.4]

// for each compound below, give its MATE1 (uptake ratio)
1. CCN1C[C@]2(COC)[C@H](O)C[C@H](OC)[C@@]34[C@@H]5C[C@@]6(O)[C@H](OC(=O)c7ccccc7)[C@@H]5[C@@](OC(C)=O)([C@@H]([C@H](OC)[C@H]23)[C@@H]14)[C@@H](O)[C@@H]6OC
2. CCCCNC(=N)NC(=N)N
3. CNCC/C=C1/c2ccccc2CC(O)c2ccccc21 (centres unmarked)
4. NC12CC3CC(CC(C3)C1)C2

Key:
[1.13, 24.8, 1.17, 1.42]

Exercise: // fetch MATE1 (uptake ratio) for "N=C(N)NCCC[C@H](NC(=O)c1ccc2ccccc2c1O)C(=O)N1CCC[C@H]1C(N)=O" ; system: MATE1 (Homo sapiens, UniProt Q96FL8)
Key: 19.12

----------
- system: MATE2K (Homo sapiens, UniProt Q86VL8)
- Sequence (Q86VL8 1-566 isoform Q86VL8-3): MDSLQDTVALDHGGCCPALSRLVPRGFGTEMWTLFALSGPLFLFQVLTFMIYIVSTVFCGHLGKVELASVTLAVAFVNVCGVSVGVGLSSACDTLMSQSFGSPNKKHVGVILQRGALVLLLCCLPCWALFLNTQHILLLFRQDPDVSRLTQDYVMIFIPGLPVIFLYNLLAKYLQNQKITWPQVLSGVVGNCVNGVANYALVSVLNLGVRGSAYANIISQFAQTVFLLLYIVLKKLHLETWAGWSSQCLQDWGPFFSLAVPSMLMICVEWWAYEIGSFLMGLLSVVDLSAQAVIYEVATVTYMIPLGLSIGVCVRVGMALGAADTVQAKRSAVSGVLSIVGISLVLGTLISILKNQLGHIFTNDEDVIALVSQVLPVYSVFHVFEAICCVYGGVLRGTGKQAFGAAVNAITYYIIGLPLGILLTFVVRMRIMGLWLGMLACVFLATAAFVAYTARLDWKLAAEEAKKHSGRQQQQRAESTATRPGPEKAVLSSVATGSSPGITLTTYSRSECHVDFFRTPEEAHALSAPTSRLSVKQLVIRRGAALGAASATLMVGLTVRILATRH
- assay.remarks: Uptake ratio in MATE2K-overexpressing HEK293 cells vs empty vector (2.5 μM, 1 min, HPLC-MS/MS)
- Assay type: cell-based
- test.parameters: mean ratio of uptake in MATE2K-overexpressing HEK293 cells vs empty vector; 2.5 μM, 1 min
Where a SMILES comes first, the peptide text is derived from it.
For each entry below, report its MATE2 (uptake ratio) value.
Give bare numbers.

Please review the following examples before continuing.
Exercise: Give the reported value of MATE2 (uptake ratio) for this record: CCCNC(C)C(=O)Nc1c(C)csc1C(=O)OC (stereo not drawn) [Articaine]
Key: 1.59

Exercise: Give the reported value of MATE2 (uptake ratio) for this record: CC(C)(C)NCC(O)COc1ccccc1C#N (stereo not drawn) [Bunitrolol]
Key: 1.31

Exercise: Give the reported value of MATE2 (uptake ratio) for this record: CC(C)(C)NCC(O)COc1cccc2c1CCC(=O)N2 (stereo not drawn) [Carteolol]
Key: 6.67

Exercise: Give the reported value of MATE2 (uptake ratio) for this record: CCCS(=O)(=O)N[C@H]1C[C@@H](N(C)c2ncnc3[nH]ccc23)C1 [Abrocitinib]
Key: 1.19

Exercise: Give the reported value of MATE2 (uptake ratio) for this record: CC(C)NCC(O)COc1ccc(CCOCC2CC2)cc1 (stereo not drawn) [Betaxolol]
Key: 1.43

Exercise: Give the reported value of MATE2 (uptake ratio) for this record: N=C(N)N1Cc2ccccc2C(O)C1 (stereo not drawn) [4-Hydroxydebrisoquine]
Key: 3.34

Exercise: Give the reported value of MATE2 (uptake ratio) for this record: O=C1CCc2ccc(OCCCCN3CCN(c4cccc(Cl)c4Cl)CC3)cc2N1 [Aripiprazole]
Key: 1.26

Exercise: Give the reported value of MATE2 (uptake ratio) for this record: COc1ccccc1OCCNCC(O)COc1cccc2[nH]c3ccccc3c12 [Carvedilol (S), Carvedilol]
Key: 1.18

Now take the following compound into account.
Exercise: Give the reported value of MATE2 (uptake ratio) for this record: COC(=O)[C@H](Cc1ccccc1)NC(=O)[C@@H](N)CC(=O)O [Aspartame] (HELM PEPTIDE1{D.F.[CO[*:1]]}$$$$V2.0)
Key: 1.07

Where do these numbers come from? They come from paper PMC12207590.
